target: P2RX3; test: reporter assay of Huesken 2005; details: siRNA; further: test concentration or dose not given here
Oligonucleotides are written 5' to 3', each unit as a sugar letter and its base; * is a phosphorothioate linkage, no mark a phosphodiester; rarer units and linkages stand in square brackets, end groups in braces. Plain capitals give the bases only. d = 2'-deoxy (DNA); r = 2'-OH (RNA)
quantity-measured: normalised inhibition (eCFP-eYFP dual reporter) (%)
// note: answer is a bare numeric in %

State, for P2RX3, measured normalised inhibition (eCFP-eYFP dual reporter) of the substance listed here: sense rCrArArGrGrArUrUrCrUrGrCrCrCrArGrArGrAdTdT / antisense rUrCrUrCrUrGrGrGrCrArGrArArUrCrCrUrUrGdCdA
102

# lookup: P2RX3 normalised inhibition (eCFP-eYFP dual reporter), key = sense rUrGrCrCrGrCrUrUrCrCrArCrCrCrGrGrArCrAdTdT / antisense rUrGrUrCrCrGrGrGrUrGrGrArArGrCrGrGrCrAdGdG
93.7

Please look at sense rArGrUrArCrArArArGrCrCrArArGrArArGrUrUdTdT / antisense rArArCrUrUrCrUrUrGrGrCrUrUrUrGrUrArCrUdGdG and tell me its recorded normalised inhibition (eCFP-eYFP dual reporter) on P2RX3.
99.5

Recall the reported normalised inhibition (eCFP-eYFP dual reporter) of sense rUrCrCrUrCrArCrUrGrGrCrCrGrCrUrGrCrGrUdTdT / antisense rArCrGrCrArGrCrGrGrCrCrArGrUrGrArGrGrAdTdC when tested on P2RX3. Further: test concentration or dose not given here.
16.4

Provide measured normalised inhibition (eCFP-eYFP dual reporter) on P2RX3 for sense rCrUrUrCrCrCrArArCrCrUrGrArCrArGrCrCrAdTdT / antisense rUrGrGrCrUrGrUrCrArGrGrUrUrGrGrGrArArGdGdA please.
66.3

Write down measured normalised inhibition (eCFP-eYFP dual reporter) (P2RX3) for this substance. sense rCrArUrCrArArCrCrGrArGrUrArGrUrUrCrArGdTdT / antisense rCrUrGrArArCrUrArCrUrCrGrGrUrUrGrArUrGdAdT
74.7

Fill in normalised inhibition (eCFP-eYFP dual reporter) for sense rArArUrCrArGrArUrGrCrArArGrGrArUrUrCrUdTdT / antisense rArGrArArUrCrCrUrUrGrCrArUrCrUrGrArUrUdTdT tested with P2RX3.
79.2

Tell me its normalised inhibition (eCFP-eYFP dual reporter) on P2RX3: sense rGrUrArCrCrGrCrArCrCrCrUrCrCrUrGrArArGdTdT / antisense rCrUrUrCrArGrGrArGrGrGrUrGrCrGrGrUrArCdTdC
37.1

Specify the recorded normalised inhibition (eCFP-eYFP dual reporter) for sense rUrCrGrGrUrCrUrUrUrGrUrCrArUrCrArUrCrAdTdT / antisense rUrGrArUrGrArUrGrArCrArArArGrArCrCrGrAdGdG , system: P2RX3. Further: test concentration or dose not given here.
72.8

Supply normalised inhibition (eCFP-eYFP dual reporter) measured with P2RX3 for sense rArCrGrCrCrArArCrArGrArGrUrCrArUrGrGrAdTdT / antisense rUrCrCrArUrGrArCrUrCrUrGrUrUrGrGrCrGrUdAdG .
89.2

Enter normalised inhibition (eCFP-eYFP dual reporter) (test system P2RX3) for sense rUrUrCrUrGrCrCrCrArGrArGrArGrUrGrArGrGdTdT / antisense rCrCrUrCrArCrUrCrUrCrUrGrGrGrCrArGrArAdTdC; further: test concentration or dose not given here
44.3

Fill in normalised inhibition (eCFP-eYFP dual reporter) for sense rGrGrUrArCrGrGrGrArCrArCrArGrCrCrArUrUdTdT / antisense rArArUrGrGrCrUrGrUrGrUrCrCrCrGrUrArCrCdTdG tested with P2RX3.
61.2
